Consider the following sequences and their measured apparent KD of K4 kissing-loop reporter readings.
system: K4 kissing-loop RNA reporter; experiment: apparent KD of K4 kissing-loop reporter; higher = weaker reporter binding; settings: Eterna round: R107; input ligand: arginine 13.2 mM;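 also: bound reporter read as fluorescence of individual clusters on recovered sequencing chips by microscopy, with normalized cluster intensities fitted with a binding model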
property_name: apparent KD of K4 kissing-loop reporter (nM)

* CCUAUCUCAUACGAUACCAGUGAAUUUAUAUUUAUUAGCAGUGAUGUUGCAUUCCAAGUACACCCUUGGCAGCGUAUGGGAUAGG [Ex Theophylline B K4 22] | 204
* GUGCGGUGGAGGUUACCGCUACUCUGAGAAGGAGCGCAGAUGACUGCAGGUAGGUCGCUUAGAGCUUGCAGUGAUGUUGCAAGUU [Anquatbiat] | 147
* AGUGAUGUUUUUUUUAAGAGUGAUGUUUUUCGAGGACCGGUACGGCCGCCACUCGAGUGAUGAGUGCGGUGUUGUGAUGUUUAGU [ewmullin] | 402

Reference for the values: the supplement of paper PMC9170038
